- SYSTEM UNDER TEST: Phosphatidylinositol 4,5-bisphosphate 3-kinase catalytic subunit beta isoform (Homo sapiens)

SMILES TEXT: Cc1cc(-c2ccc3c(c2)N(c2c(C)c(-c4ccccn4)nc4cc(F)ccc24)CC3(C)C)nc(N)n1
QUALIFIER OPERATOR: >
Ki, nM: 125000
//
SMILES TEXT: Cc1c(-c2ccccn2)nc2cc(F)ccc2c1N1CC(CO)(CO)c2ccc(N3CCOCC3)cc21
QUALIFIER OPERATOR: =
Ki, nM: 269
//
SMILES TEXT: Cc1c(-c2ccccn2)nc2cc(F)ccc2c1N1CC(C)(C)c2ncc(N3CCOCC3)cc21
QUALIFIER OPERATOR: =
Ki, nM: 30
//
SMILES TEXT: Cc1c(-c2ccccn2)nc2cc(F)ccc2c1N1CC2(CS(=O)(=O)C2)c2ccc(N3CCOCC3)cc21
QUALIFIER OPERATOR: =
Ki, nM: 395
//
SMILES TEXT: Cc1c(-c2ccccn2)nc2cc(F)ccc2c1N1CC(C)(C)c2ccc(-c3ccnc(N)n3)cc21
QUALIFIER OPERATOR: =
Ki, nM: 54
//
SMILES TEXT: Cc1c(-c2ccccn2)nc2cc(F)ccc2c1N1CC(C)(C)c2ncc(-c3ccnc(N)n3)cc21
QUALIFIER OPERATOR: =
Ki, nM: 18

---

- TEST DESCRIPTION: physchem
- SETUP CONDITIONS: buffer, pH 7.4
- Description: Lipophilicity, log D of the compound at pH 7.4
READOUT NAME: logD

SMILES TEXT: Cc1c(-c2ccccn2)nc2cc(F)ccc2c1N1CC(C)(C)c2ccc(N3CCOCC3)cc21
RESULT: 4.5

---

- SYSTEM UNDER TEST: Phosphatidylinositol 4,5-bisphosphate 3-kinase catalytic subunit beta isoform (Homo sapiens, UniProt P42338)
- Sequence (P42338 whole entry, canonical isoform): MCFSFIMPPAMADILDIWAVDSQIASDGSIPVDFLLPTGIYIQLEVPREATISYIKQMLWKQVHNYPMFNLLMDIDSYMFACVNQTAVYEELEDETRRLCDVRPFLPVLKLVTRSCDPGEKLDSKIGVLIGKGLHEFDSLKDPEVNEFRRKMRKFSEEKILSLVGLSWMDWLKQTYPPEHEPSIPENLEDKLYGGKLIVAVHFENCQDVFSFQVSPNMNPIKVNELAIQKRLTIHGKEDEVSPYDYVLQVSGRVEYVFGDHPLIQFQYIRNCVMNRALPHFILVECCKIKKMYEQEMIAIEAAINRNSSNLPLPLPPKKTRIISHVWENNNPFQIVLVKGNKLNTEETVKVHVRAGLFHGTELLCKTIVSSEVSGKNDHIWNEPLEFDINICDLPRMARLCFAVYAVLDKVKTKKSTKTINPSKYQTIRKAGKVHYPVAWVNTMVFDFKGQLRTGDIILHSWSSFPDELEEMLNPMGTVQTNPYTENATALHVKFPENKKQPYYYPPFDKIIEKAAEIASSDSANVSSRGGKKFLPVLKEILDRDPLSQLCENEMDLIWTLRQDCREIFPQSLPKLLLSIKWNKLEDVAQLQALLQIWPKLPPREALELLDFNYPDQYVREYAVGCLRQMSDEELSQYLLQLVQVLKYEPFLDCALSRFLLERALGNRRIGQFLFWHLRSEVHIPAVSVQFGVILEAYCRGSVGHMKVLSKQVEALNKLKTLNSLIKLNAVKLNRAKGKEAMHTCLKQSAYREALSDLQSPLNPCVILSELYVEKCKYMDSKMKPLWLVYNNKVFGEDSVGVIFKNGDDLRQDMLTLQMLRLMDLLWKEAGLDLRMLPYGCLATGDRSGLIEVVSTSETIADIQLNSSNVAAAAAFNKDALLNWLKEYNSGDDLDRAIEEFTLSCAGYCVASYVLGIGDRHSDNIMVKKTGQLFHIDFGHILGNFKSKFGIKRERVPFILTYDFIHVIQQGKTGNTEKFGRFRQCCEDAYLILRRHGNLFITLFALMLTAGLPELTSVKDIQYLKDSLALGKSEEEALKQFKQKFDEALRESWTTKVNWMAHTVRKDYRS
Label key: Met means IC50 under 100 nM; Not met means IC50 of 100 nM or more.

SMILES TEXT: Cc1nc2ccccc2c(N2CC3(CCOCC3)c3ccc(N4CCOCC4)cc32)c1C
GROUP: Met

SMILES TEXT: Cc1c(-c2ccccn2)nc2cc(F)ccc2c1N1CC2(CCOCC2)c2ccc(N3CCOCC3)cc21
GROUP: Not met

SMILES TEXT: Cc1c(-c2ccccn2)nc2cccc(F)c2c1N1CC(C)(C)c2ccc(N3CCOCC3)cc21
GROUP: Not met

SMILES TEXT: Cc1c(-c2ccccc2)nc2ccccc2c1N1CC2(CCOCC2)c2ccc(N3CCOCC3)cc21
GROUP: Not met

SMILES TEXT: Cc1c(-c2ccccc2F)nc2ccccc2c1N1CC(C)(C)c2ccc(N3CCOCC3)cc21
GROUP: Met

---

- TEST DESCRIPTION: in vitro
- SETUP CONDITIONS: rat, liver microsomes
- Description: Drug metabolism in rat liver microsomes at 1 uM after 30 mins
Label key: Fulfilled means metabolised at 0.5 h, 1 µM under 70%; Not fulfilled means metabolised at 0.5 h, 1 µM of 70% or more.

SMILES TEXT: Cc1c(-c2ccccc2)nc2ccccc2c1N1CC(C)(C)c2ccc(N3CCOCC3)cc21
GROUP: Fulfilled

SMILES TEXT: Cc1nc2ccc(Cl)cc2c(N2CC(C)(C)c3ccc(N4CCOCC4)cc32)c1C
GROUP: Not fulfilled

SMILES TEXT: Cc1c(-c2ccccn2)nc2cc(F)ccc2c1N1CC(C)(C)c2ncc(-c3ccnc(N)n3)cc21
GROUP: Fulfilled

SMILES TEXT: Cc1nc2ccccc2c(N2CC(C)(C)c3ccc(N4CCOCC4)cc32)c1C
GROUP: Not fulfilled

SMILES TEXT: Cc1c(-c2ccccn2)nc2cc(F)ccc2c1N1CC(C)(C)c2ccc(N3CCOCC3)cc21
GROUP: Fulfilled

---

- TEST DESCRIPTION: in vivo
- SETUP CONDITIONS: Sprague-Dawley, rat, iv, 0.5 mg/kg
- Description: Volume of distribution at steady state in Sprague-Dawley rat at 0.5 mg/kg, iv
Measured Vd, listed per entry.
READOUT NAME: Vd (L/kg)

SMILES TEXT: Cc1c(-c2ccccn2)nc2cc(F)ccc2c1N1CC(C)(C)c2ncc(N3CCOCC3)cc21
READOUT NAME: Vd
NUMERIC RESULT: 5
--
SMILES TEXT: Cc1c(-c2ccccn2)nc2cc(F)ccc2c1N1CC(C)(C)c2ccc(-c3ccnc(N)n3)cc21
READOUT NAME: Vd
NUMERIC RESULT: 7.5

---

- TEST DESCRIPTION: in vitro
- SETUP CONDITIONS: rat, liver microsomes

SMILES TEXT: Cc1c(-c2ccccc2F)nc2ccccc2c1N1CC(C)(C)c2ccc(N3CCOCC3)cc21
UNIT: %
metabolised at 0.5 h, 1 µM: 52

SMILES TEXT: Cc1c(-c2ccccn2)nc2cc(F)ccc2c1N1CC(C)(C)c2ncc(N3CCOCC3)cc21
UNIT: %
metabolised at 0.5 h, 1 µM: 28

SMILES TEXT: Cc1c(-c2ccccn2)nc2cc(F)ccc2c1N1CC2(CCOCC2)c2ccc(N3CCOCC3)cc21
UNIT: %
metabolised at 0.5 h, 1 µM: 13

SMILES TEXT: Cc1c(-c2ccccn2)nc2cccc(F)c2c1N1CC(C)(C)c2ccc(N3CCOCC3)cc21
UNIT: %
metabolised at 0.5 h, 1 µM: 49

SMILES TEXT: Cc1c(-c2ccccc2)nc2ccccc2c1N1CC2(CCOCC2)c2ccc(N3CCOCC3)cc21
UNIT: %
metabolised at 0.5 h, 1 µM: 46

---

- TEST DESCRIPTION: in vitro
- SETUP CONDITIONS: human, liver microsomes
- Description: Drug metabolism in human liver microsomes at 1 uM after 30 mins
Label key: fulfilled means metabolised at 0.5 h, 1 µM under 60%; not fulfilled means metabolised at 0.5 h, 1 µM of 60% or more.

SMILES TEXT: Cc1c(-c2ccccc2)nc2ccccc2c1N1CC(C)(C)c2ccc(N3CCOCC3)cc21
GROUP: fulfilled
//
SMILES TEXT: Cc1nc2ccc(Cl)cc2c(N2CC(C)(C)c3ccc(N4CCOCC4)cc32)c1C
GROUP: fulfilled
//
SMILES TEXT: Cc1c(-c2ccccn2)nc2cc(F)ccc2c1N1CC(C)(C)c2ncc(-c3ccnc(N)n3)cc21
GROUP: fulfilled
//
SMILES TEXT: Cc1nc2ccccc2c(N2CC3(CCOCC3)c3ccc(N4CCOCC4)cc32)c1C
GROUP: not fulfilled
//
SMILES TEXT: Cc1c(-c2ccccc2F)nc2ccccc2c1N1CC(C)(C)c2ccc(N3CCOCC3)cc21
GROUP: fulfilled
//
SMILES TEXT: Cc1c(-c2ccccn2)nc2cccc(F)c2c1N1CC(C)(C)c2ccc(N3CCOCC3)cc21
GROUP: fulfilled
//
SMILES TEXT: Cc1nc2ccccc2c(N2CC(C)(C)c3ccc(N4CCOCC4)cc32)c1C
GROUP: not fulfilled
//
SMILES TEXT: Cc1c(-c2ccccc2)nc2ccccc2c1N1CC2(CCOCC2)c2ccc(N3CCOCC3)cc21
GROUP: not fulfilled
//
SMILES TEXT: Cc1c(-c2ccccn2)nc2cc(F)ccc2c1N1CC(C)(C)c2ccc(N3CCOCC3)cc21
GROUP: fulfilled
//
SMILES TEXT: Cc1c(-c2ccccn2)nc2cc(F)ccc2c1N1CC2(CCOCC2)c2ccc(N3CCOCC3)cc21
GROUP: not fulfilled
//
SMILES TEXT: Cc1c(-c2ccccn2)nc2cc(F)ccc2c1N1CC(C)(C)c2ncc(N3CCOCC3)cc21
GROUP: fulfilled

---

- SYSTEM UNDER TEST: Phosphatidylinositol 4,5-bisphosphate 3-kinase catalytic subunit gamma isoform (Homo sapiens, UniProt P48736)
- Sequence (P48736 whole entry, canonical isoform): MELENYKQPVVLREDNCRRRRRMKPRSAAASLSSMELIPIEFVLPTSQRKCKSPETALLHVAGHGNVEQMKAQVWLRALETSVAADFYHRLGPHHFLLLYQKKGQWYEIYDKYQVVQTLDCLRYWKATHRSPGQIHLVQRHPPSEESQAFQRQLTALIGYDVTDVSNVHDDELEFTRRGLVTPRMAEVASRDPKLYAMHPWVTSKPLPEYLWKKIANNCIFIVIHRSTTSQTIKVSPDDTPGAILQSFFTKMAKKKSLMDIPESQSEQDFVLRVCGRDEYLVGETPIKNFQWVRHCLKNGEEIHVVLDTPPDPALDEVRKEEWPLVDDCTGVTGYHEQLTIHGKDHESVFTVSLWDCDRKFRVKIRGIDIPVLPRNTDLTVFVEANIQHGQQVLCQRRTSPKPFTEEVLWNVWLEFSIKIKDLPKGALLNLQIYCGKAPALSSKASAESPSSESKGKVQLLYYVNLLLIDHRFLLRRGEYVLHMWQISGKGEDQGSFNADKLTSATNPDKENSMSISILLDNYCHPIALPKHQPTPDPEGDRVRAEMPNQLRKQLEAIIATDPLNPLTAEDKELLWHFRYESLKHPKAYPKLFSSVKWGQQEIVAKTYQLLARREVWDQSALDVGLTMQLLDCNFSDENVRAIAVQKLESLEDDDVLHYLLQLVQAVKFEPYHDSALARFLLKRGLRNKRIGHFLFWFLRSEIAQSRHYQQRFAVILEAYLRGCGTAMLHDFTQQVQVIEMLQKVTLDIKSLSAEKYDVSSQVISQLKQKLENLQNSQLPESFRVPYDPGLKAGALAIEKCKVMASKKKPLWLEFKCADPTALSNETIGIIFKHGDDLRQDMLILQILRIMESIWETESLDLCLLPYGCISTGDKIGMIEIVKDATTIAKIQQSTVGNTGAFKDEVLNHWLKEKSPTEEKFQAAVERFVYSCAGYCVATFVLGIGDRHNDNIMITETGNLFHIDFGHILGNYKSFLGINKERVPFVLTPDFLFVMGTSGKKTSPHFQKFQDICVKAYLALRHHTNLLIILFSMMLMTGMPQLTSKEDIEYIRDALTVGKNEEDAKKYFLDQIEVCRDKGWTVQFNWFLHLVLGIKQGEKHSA
pIC50: −log10 of the molar value.

SMILES TEXT: Cc1c(-c2ccccn2)nc2cc(F)ccc2c1N1CC(C)(C)c2ccc(N3CCOCC3)cc21
pIC50: 5.70

SMILES TEXT: Cc1c(-c2ccccn2)nc2cc(F)ccc2c1N1CC(C)(C)c2ccc(-c3ccncc3)cc21
pIC50: 5.85

SMILES TEXT: Cc1nc2ccccc2c(N2CC(C)(C)c3ccc(N4CCOCC4)cc32)c1C
pIC50: 4.74

---

- SYSTEM UNDER TEST: Phosphatidylinositol 4,5-bisphosphate 3-kinase catalytic subunit beta isoform (Homo sapiens, UniProt P42338)

SMILES TEXT: Cc1c(-c2ccccn2)nc2cc(F)ccc2c1N1CC(C)(C)c2ncc(N3CCOCC3)cc21
IC50 (nM): 51

SMILES TEXT: Cc1c(-c2ccccn2)nc2cc(F)ccc2c1N1CC(C)(C)c2ncc(-c3ccnc(N)n3)cc21
IC50 (nM): 10

SMILES TEXT: Cc1c(-c2ccccn2)nc2cc(F)ccc2c1N1CC(C)(C)c2ccc(N3CCOCC3)cc21
IC50 (nM): 53

---

- TEST DESCRIPTION: in vivo
- SETUP CONDITIONS: Sprague-Dawley, rat, po, 2 mg/kg

SMILES TEXT: Cc1c(-c2ccccn2)nc2cc(F)ccc2c1N1CC(C)(C)c2ncc(N3CCOCC3)cc21
bioavailability, %: 47
